# Tested on: Escherichia coli TOP10
# protocol.description: shrunken log2 fold change of peptide-encoding DNA abundance (4.5 h post-induction vs induction); higher = less antimicrobial activity (less host growth inhibition)
# condition.notes: time post-induction: 4.5 h; library: site-saturation at positions 5, 18, 19, 20
Categorize each record by its shrunken log2 fold change using low (below 0.03), medium (0.03 to below 0.2), high (0.2 or more)

Known results for sequences:
chain.sequence: RRIRGRPPRLPRPRPRPKVNPRP
classification: high
//
chain.sequence: RRIRIRPPRLPRPRPRPGYWPRP
classification: low
//
chain.sequence: RRIRVRPPRLPRPRPRPKWQPRP
classification: low
//
chain.sequence: RRIRKRPPRLPRPRPRPPQWPRP
classification: high
//
chain.sequence: RRIRARPPRLPRPRPRPMKAPRP
classification: medium

Exam item: assign `RRIRMRPPRLPRPRPRPFLGPRP` to the correct category.
high

###

# Test system: Escherichia coli TOP10
# protocol.description: shrunken log2 fold change of peptide-encoding DNA abundance (4.5 h post-induction vs induction); higher = less antimicrobial activity (less host growth inhibition)
# condition.notes: time post-induction: 4.5 h; library: site-saturation at positions 5, 18, 19, 20
Quick rule: shrunken log2 fold change of at least -0.06 means y, below that means n.

chain.sequence: RRIRIRPPRLPRPRPRPGRAPRP
classification: y
--
chain.sequence: RRIRYRPPRLPRPRPRPCPEPRP
classification: n
--
chain.sequence: RRIRRRPPRLPRPRPRPFSRPRP
classification: y
--
chain.sequence: RRIRKRPPRLPRPRPRPIFAPRP
classification: y
--
chain.sequence: RRIRIRPPRLPRPRPRPDDAPRP
classification: n
--
chain.sequence: RRIRIRPPRLPRPRPRPRYRPRP
classification: n
--
chain.sequence: RRIRDRPPRLPRPRPRPHDSPRP
classification: y
--
chain.sequence: RRIRVRPPRLPRPRPRPAQDPRP
classification: y
--
chain.sequence: RRIRYRPPRLPRPRPRPHLCPRP
classification: n
--
chain.sequence: RRIRRRPPRLPRPRPRPKVTPRP
classification: n

Is the recorded value of shrunken log2 fold change equal to or greater than -0.06 for this sequence? `RRIRKRPPRLPRPRPRPNKGPRP`
y

Item: `RRIRLRPPRLPRPRPRPTHQPRP`
y

Item: `RRIRYRPPRLPRPRPRPTMSPRP`
n

Item: `RRIRMRPPRLPRPRPRPYMYPRP`
y

Item: `RRIRVRPPRLPRPRPRPIRPPRP`
y

###

Assign shrunken log2 fold change to each entry below.
# System: Escherichia coli TOP10
# protocol.description: shrunken log2 fold change of peptide-encoding DNA abundance (4.5 h post-induction vs induction); higher = less antimicrobial activity (less host growth inhibition)
# condition.notes: time post-induction: 4.5 h; library: site-saturation at positions 5, 18, 19, 20
Give bare numbers.

Batch lookup, shrunken log2 fold change per entry.
1. RRIRARPPRLPRPRPRPQGMPRP
2. RRIRDRPPRLPRPRPRPSMGPRP
3. RRIRIRPPRLPRPRPRPYNPPRP
4. RRIRFRPPRLPRPRPRPAPEPRP
5. RRIRVRPPRLPRPRPRPPLTPRP
6. RRIRSRPPRLPRPRPRPHHCPRP
7. RRIRERPPRLPRPRPRPEHIPRP
8. RRIRRRPPRLPRPRPRPRCHPRP

[0.233, -0.11, -0.276, 0.81, 0.119, -0.0623, -0.594, 0.127]

Batch lookup, shrunken log2 fold change per entry.
1. RRIRARPPRLPRPRPRPHSFPRP
2. RRIRCRPPRLPRPRPRPEDRPRP
3. RRIRWRPPRLPRPRPRPGWNPRP
4. RRIRARPPRLPRPRPRPEDFPRP
5. RRIRLRPPRLPRPRPRPEYTPRP
6. RRIRKRPPRLPRPRPRPCTNPRP

0.00388
-0.0137
0.238
1.11
-0.0657
-0.0404

Batch lookup, shrunken log2 fold change per entry.
1. RRIRQRPPRLPRPRPRPLNQPRP
2. RRIRSRPPRLPRPRPRPQAQPRP

[-0.155, -0.121]

Batch lookup, shrunken log2 fold change per entry.
1. RRIRKRPPRLPRPRPRPSGHPRP
2. RRIRQRPPRLPRPRPRPCGKPRP

-0.0496
-0.116

###

# Tested on: Escherichia coli TOP10
# protocol.description: shrunken log2 fold change of peptide-encoding DNA abundance (4.5 h post-induction vs induction); higher = less antimicrobial activity (less host growth inhibition)
# condition.notes: time post-induction: 4.5 h; library: site-saturation at positions 5, 18, 19, 20
Quick rule: shrunken log2 fold change of at least 0.06 means 1.0, below that means 0.0.

Known results for sequences:
chain.sequence: RRIRARPPRLPRPRPRPYPPPRP
classification: 0.0
--
chain.sequence: RRIRRRPPRLPRPRPRPQLIPRP
classification: 0.0
--
chain.sequence: RRIRARPPRLPRPRPRPDSWPRP
classification: 1.0
--
chain.sequence: RRIRGRPPRLPRPRPRPCQMPRP
classification: 1.0
--
chain.sequence: RRIRARPPRLPRPRPRPCLRPRP
classification: 1.0

# evaluate next
Is the recorded value of shrunken log2 fold change equal to or greater than 0.06 for this sequence? `RRIRCRPPRLPRPRPRPNSQPRP`
0.0

###

Assign shrunken log2 fold change to each entry below.
# Tested on: Escherichia coli TOP10
# protocol.description: shrunken log2 fold change of peptide-encoding DNA abundance (4.5 h post-induction vs induction); higher = less antimicrobial activity (less host growth inhibition)
# condition.notes: time post-induction: 4.5 h; library: site-saturation at positions 5, 18, 19, 20
Numbers only.

chain.sequence: RRIRGRPPRLPRPRPRPQHQPRP
shrunken log2 fold change: 0.524
//
chain.sequence: RRIRTRPPRLPRPRPRPHELPRP
shrunken log2 fold change: -0.125
//
chain.sequence: RRIRDRPPRLPRPRPRPILYPRP
shrunken log2 fold change: -0.131

Batch lookup, shrunken log2 fold change per entry.
1. RRIRWRPPRLPRPRPRPFSRPRP
2. RRIRQRPPRLPRPRPRPLPPPRP
3. RRIRRRPPRLPRPRPRPDIQPRP

-0.0399
1.09
0.0298

Batch lookup, shrunken log2 fold change per entry.
1. RRIRLRPPRLPRPRPRPIAKPRP
2. RRIRFRPPRLPRPRPRPWVFPRP
3. RRIRARPPRLPRPRPRPYNKPRP
4. RRIRWRPPRLPRPRPRPWMKPRP

-0.305
-0.00336
-0.731
-0.225

###

# Test system: Escherichia coli TOP10
# protocol.description: shrunken log2 fold change of peptide-encoding DNA abundance (4.5 h post-induction vs induction); higher = less antimicrobial activity (less host growth inhibition)
# condition.notes: time post-induction: 4.5 h; library: site-saturation at positions 5, 18, 19, 20
Quick rule: shrunken log2 fold change of at least 0.08 means class 1, below that means class 0.

chain.sequence: RRIRHRPPRLPRPRPRPLDNPRP
classification: class 0

Is the recorded value of shrunken log2 fold change equal to or greater than 0.08 for this sequence? `RRIRARPPRLPRPRPRPSQDPRP`
class 1

Item: `RRIRCRPPRLPRPRPRPTPPPRP`
class 1

Item: `RRIRDRPPRLPRPRPRPSYLPRP`
class 0

Item: `RRIRARPPRLPRPRPRPIHPPRP`
class 0

Item: `RRIRNRPPRLPRPRPRPYFIPRP`
class 0

Item: `RRIRNRPPRLPRPRPRPYQNPRP`
class 0

Item: `RRIRSRPPRLPRPRPRPLWNPRP`
class 0

Item: `RRIRDRPPRLPRPRPRPQRVPRP`
class 1

###

# System: Escherichia coli TOP10
# protocol.description: shrunken log2 fold change of peptide-encoding DNA abundance (4.5 h post-induction vs induction); higher = less antimicrobial activity (less host growth inhibition)
# condition.notes: time post-induction: 4.5 h; library: site-saturation at positions 5, 18, 19, 20
Quick rule: shrunken log2 fold change of at least 0.006 means class 1, below that means class 0.

Known results for sequences:
chain.sequence: RRIRYRPPRLPRPRPRPVYPPRP
study.target: Escherichia coli TOP10
classification: class 0
//
chain.sequence: RRIRCRPPRLPRPRPRPRFEPRP
study.target: Escherichia coli TOP10
classification: class 1
//
chain.sequence: RRIRGRPPRLPRPRPRPQHHPRP
study.target: Escherichia coli TOP10
classification: class 0
//
chain.sequence: RRIRMRPPRLPRPRPRPWYIPRP
study.target: Escherichia coli TOP10
classification: class 0

Is the recorded value of shrunken log2 fold change equal to or greater than 0.006 for this sequence? `RRIRNRPPRLPRPRPRPKMTPRP`
class 0

Item: `RRIRVRPPRLPRPRPRPTKGPRP`
class 1

###

# Test system: Escherichia coli TOP10;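 further: peptides expressed intracellularly from a pBAD plasmid library in pooled LB shake-flask culture, induced with 0.3% L-arabinose, DNA abundance read by NGS, three biological replicates, DESeq2 with apeglm shrinkage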
# protocol.description: shrunken log2 fold change of peptide-encoding DNA abundance (4.5 h post-induction vs induction); higher = less antimicrobial activity (less host growth inhibition)
# condition.notes: time post-induction: 4.5 h; library: site-saturation at positions 5, 18, 19, 20
Quick rule: shrunken log2 fold change of at least 0.05 means true (1), below that means false (0).

chain.sequence: RRIRFRPPRLPRPRPRPHMRPRP
classification: false (0)

chain.sequence: RRIRTRPPRLPRPRPRPMNLPRP
classification: false (0)

Is the recorded value of shrunken log2 fold change equal to or greater than 0.05 for this sequence? `RRIRSRPPRLPRPRPRPFANPRP`
false (0)

Source: the supplement of paper PMC9112550
